Listed next: entries and their corresponding MIC.
# System: Pseudomonas aeruginosa (r = resistant)
# Experiment Notes: MIC determination by microdilution in liquid medium, Pse aer r
# Assay type: cell-based
# Condition Summary: read-out: MIC Pse aer r

| Compound | MIC |
| --- | --- |
| CN1COc2c(N3C[C@H](N)C(C)(C)C3)c(F)cc3c(=O)c(C(=O)O)cn1c23 [Example 35] | 8 µg/mL |
| CN1COc2c(N3CC[C@H](Nc4nccs4)C3)c(F)cc3c(=O)c(C(=O)O)cn1c23 [Example 18] | 32 µg/mL |
| CN1COc2c(N3CCC(Nc4cnccn4)C3)c(F)cc3c(=O)c(C(=O)O)cn1c23 (stereo not shown) [Example 7] | 16 µg/mL |
| CN1COc2c(N3CCC(Nc4ccccn4)C3)c(F)cc3c(=O)c(C(=O)O)cn1c23 (stereo not shown) [Example 8] | > 32 µg/mL |

* * *

| Compound | melting point (°C) |
| --- | --- |
| Cc1cc(NC2CCN(c3c(F)cc4c(=O)c(C(=O)O)cn5c4c3OCN5C)C2)sn1 (stereo not shown) (hydrate or solvate) | 265 |
| CN1COc2c(N3CCC(Nc4nccs4)CC3)c(F)cc3c(=O)c(C(=O)O)cn1c23 (hydrate or solvate) | 280 |
| Cc1nnc(NCC2CCN(c3c(F)cc4c(=O)c(C(=O)O)cn5c4c3OCN5C)C2)o1 (stereo not shown) (hydrate or solvate) | 240 |

* * *

| Compound | melting point |
| --- | --- |
| CN1COc2c(N3CCC(Nc4cnccn4)CC3)c(F)cc3c(=O)c(C(=O)O)cn1c23 (hydrate or solvate) | 239 °C (dec.) |
| CN1COc2c(N3CCC(Nc4ccccn4)C3)c(F)cc3c(=O)c(C(=O)O)cn1c23 (stereo not drawn) (hydrate or solvate) | 278 to 280 °C |
| Cc1nnc(NC2CCN(c3c(F)cc4c(=O)c(C(=O)O)cn5c4c3OCN5C)C2)o1 (stereo not drawn) (hydrate or solvate) | 285 °C |
| CN1COc2c(N3CC[C@@H](Nc4nccs4)C3)ccc3c(=O)c(C(=O)O)cn1c23 (hydrate or solvate) | 275 °C (dec.) |
| Cc1csc(NC2CCN(c3c(F)cc4c(=O)c(C(=O)O)cn5c4c3OCN5C)C2)n1 (stereo not drawn) (hydrate or solvate) | 260 °C (dec.) |
| CN1COc2c(N3CCC(Nc4ncns4)C3)c(F)cc3c(=O)c(C(=O)O)cn1c23 (stereo not drawn) (hydrate or solvate) | 285 °C (dec.) |
| CN1COc2c(N3CCC(Nc4nncs4)C3)c(F)cc3c(=O)c(C(=O)O)cn1c23 (stereo not drawn) (hydrate or solvate) | 320 °C (dec.) |
| CN1COc2c(N3CCC(N4CCCCC4)CC3)c(F)cc3c(=O)c(C(=O)O)cn1c23 (hydrate or solvate) | 249 °C (dec.) |
| CC1Oc2c(N3CC[C@@H](Nc4nccs4)C3)ccc3c(=O)c(C(=O)O)cn(c23)N1C (stereo partly drawn) (hydrate or solvate) | 260 to 263 °C |
| CN1COc2c(N3CCC(CNc4cnccn4)C3)c(F)cc3c(=O)c(C(=O)O)cn1c23 (stereo not drawn) (hydrate or solvate) | 238 to 240 °C |
| CN1COc2c(N3C[C@@H](Nc4nccs4)C(C)(C)C3)c(F)cc3c(=O)c(C(=O)O)cn1c23 (hydrate or solvate) | 265 °C (dec.) |
| CN1COc2c(N3CCC(NC4=NCCS4)C3)c(F)cc3c(=O)c(C(=O)O)cn1c23 (stereo not drawn) (hydrate or solvate) | 265 to 267 °C |
| CN1COc2c(N3CC[C@H](Nc4nccs4)C3)c(F)cc3c(=O)c(C(=O)O)cn1c23 (hydrate or solvate) | 275 °C |
| CN1COc2c(N3CCC(NC(=O)c4ccco4)C3)c(F)cc3c(=O)c(C(=O)O)cn1c23 (stereo not drawn) (hydrate or solvate) | 306 to 308 °C |
| CO/N=C1\CCN(c2c(F)cc3c(=O)c(C(=O)O)cn4c3c2OCN4C)C1 (hydrate or solvate) | 241 to 243 °C |
| Cc1cc(N[C@@H]2CCN(c3c(F)cc4c(=O)c(C(=O)O)cn5c4c3OCN5C)C2)on1 (hydrate or solvate) | 255 to 257 °C |
| CN1COc2c(N3CCC(CNC(=O)c4ccco4)C3)c(F)cc3c(=O)c(C(=O)O)cn1c23 (stereo not drawn) (hydrate or solvate) | 278 to 280 °C |
| Cc1cnc(NC2CCN(c3c(F)cc4c(=O)c(C(=O)O)cn5c4c3OCN5C)C2)s1 (stereo not drawn) (hydrate or solvate) | 265 °C (dec.) |
| CN1COc2c(N3CCC(NC(=O)c4ccco4)CC3)c(F)cc3c(=O)c(C(=O)O)cn1c23 (hydrate or solvate) | 293 to 295 °C |
| CN1COc2c(N3CC(N)C(c4nccs4)C3)c(F)cc3c(=O)c(C(=O)O)cn1c23 (stereo not drawn) (hydrate or solvate) | 240 to 245 °C |
| CN1COc2c(N3CCC(NC(=O)CC(F)(F)F)C3)c(F)cc3c(=O)c(C(=O)O)cn1c23 (stereo not drawn) (hydrate or solvate) | 292 °C (dec.) |
| CN1n2cc(C(=O)O)c(=O)c3cc(F)c(N4CC[C@@H](Nc5nccs5)C4)c(c32)OC1(C)C (hydrate or solvate) | 235 to 237 °C |
| CN1n2cc(C(=O)O)c(=O)c3cc(F)c(N4C[C@H](N)C(C)(C)C4)c(c32)OC1(C)C (hydrate or solvate) | 255 to 257 °C |
| CN1n2cc(C(=O)O)c(=O)c3cc(F)c(N4CC[C@H](NC(=O)C(F)(F)F)C4)c(c32)OC1(C)C (hydrate or solvate) [53] | 283 °C |

* * *

# Tested on: Pseudomonas aeruginosa (r = resistant)
# Experiment Notes: MIC determination by microdilution in liquid medium, Pse aer r
# Format: cell-based
# Condition Summary: read-out: MIC Pse aer r
Listed next: entries and their corresponding MIC.
Quantity: MIC (µg/mL)

| Compound | Censor Symbol | Value Reported |
| --- | --- | --- |
| CN1COc2c(N3CC[C@@H](Nc4nccs4)C3)c(F)cc3c(=O)c(C(=O)O)cn1c23 | = | 8 |
| CN1COc2c(N3CC[C@H](NC(=O)C(F)(F)F)C3)c(F)cc3c(=O)c(C(=O)O)cn1c23 | = | 1 |
| CN1COc2c(N3CCC(C(O)c4nccs4)C3)c(F)cc3c(=O)c(C(=O)O)cn1c23 (stereo not shown) | = | 32 |
| CN1COc2c(N3CC(N)C(C)(C)C3)c(F)cc3c(=O)c(C(=O)O)cn1c23 (racemic) | = | 8 |
| CN1COc2c(N3C[C@@H](N)C(C)(C)C3)c(F)cc3c(=O)c(C(=O)O)cn1c23 | = | 8 |
| CN1COc2c(N3CCC(C(N)c4nccs4)C3)c(F)cc3c(=O)c(C(=O)O)cn1c23 (stereo not shown) | = | 16 |
| CN1COc2c(N3CCC(Nc4nncs4)C3)c(F)cc3c(=O)c(C(=O)O)cn1c23 (stereo not shown) | > | 32 |
| CN1COc2c(N3CCC(CNc4cnccn4)C3)c(F)cc3c(=O)c(C(=O)O)cn1c23 (stereo not shown) | = | 16 |
| CN1COc2c(N3CCC(NC(=O)C(F)(F)F)C3)c(F)cc3c(=O)c(C(=O)O)cn1c23 (stereo not shown) | = | 2 |
| CN1COc2c(N3CC[C@@H](NC(=O)C(F)(F)F)C3)c(F)cc3c(=O)c(C(=O)O)cn1c23 | = | 4 |

* * *

Measured MIC (Streptococcus uberis)
Quantity: MIC

| Compound | Target Or Test System | Value Reported |
| --- | --- | --- |
| CN1COc2c(N3CCC(NC(=O)C(F)(F)F)C3)c(F)cc3c(=O)c(C(=O)O)cn1c23 (stereo not shown) | Streptococcus uberis | 0.25 µg/mL |
| CN1COc2c(N3CCC(Nc4ccccn4)C3)c(F)cc3c(=O)c(C(=O)O)cn1c23 (stereo not shown) | Streptococcus uberis | 0.25 µg/mL |
| CN1COc2c(N3C[C@@H](N)C(C)(C)C3)c(F)cc3c(=O)c(C(=O)O)cn1c23 | Streptococcus uberis | 0.12 µg/mL |
| CN1COc2c(N3C[C@H](N)C(C)(C)C3)c(F)cc3c(=O)c(C(=O)O)cn1c23 | Streptococcus uberis | 0.12 µg/mL |

* * *

Quantity: melting point

| Compound | Quantity | Value Reported |
| --- | --- | --- |
| Cc1cc(NC2CCN(c3c(F)cc4c(=O)c(C(=O)O)cn5c4c3OCN5C)C2)no1 (stereo not shown) (hydrate or solvate) | melting point | 263 °C (dec.) |
| CN1COc2c(N3CCC(C(O)c4nccs4)C3)c(F)cc3c(=O)c(C(=O)O)cn1c23 (stereo not shown) (hydrate or solvate) | melting point | 215 to 217 °C |
| CN1COc2c(N3CC(O)C(C)(C)C3)c(F)cc3c(=O)c(C(=O)O)cn1c23 (stereo not shown) (hydrate or solvate) | melting point | 281 °C (dec.) |
| CN1COc2c(N3CCC(NS(C)(=O)=O)C3)c(F)cc3c(=O)c(C(=O)O)cn1c23 (stereo not shown) (hydrate or solvate) | melting point | 261 °C (dec.) |
| Cc1cc(NC2CCN(c3c(F)cc4c(=O)c(C(=O)O)cn5c4c3OCN5C)C2)on1 (stereo not shown) (hydrate or solvate) | melting point | 244 °C (dec.) |
| CN1COc2c(N3C[C@@H](N)C(C)(C)C3)c(F)cc3c(=O)c(C(=O)O)cn1c23 (hydrate or solvate) | melting point | 230 °C (dec.) |
| CN1COc2c(N3CC[C@@H](Nc4ncc[nH]4)C3)c(F)cc3c(=O)c(C(=O)O)cn1c23 (hydrate or solvate) | melting point | 225 °C (dec.) |
| Cc1cc(N[C@H]2CCN(c3c(F)cc4c(=O)c(C(=O)O)cn5c4c3OCN5C)C2)on1 (hydrate or solvate) | melting point | 255 to 257 °C |
| CN1COc2c(N3CC[C@@H](Nc4cnccn4)C3)c(F)cc3c(=O)c(C(=O)O)cn1c23 (hydrate or solvate) | melting point | 255 °C (dec.) |
| CN1COc2c(N3CCC(c4nnn[nH]4)C3)c(F)cc3c(=O)c(C(=O)O)cn1c23 (stereo not shown) (hydrate or solvate) | melting point | 250 °C (dec.) |
| CN1COc2c(N3CCC(CNc4nccs4)C3)c(F)cc3c(=O)c(C(=O)O)cn1c23 (stereo not shown) (hydrate or solvate) | melting point | 268 to 270 °C |
| CC1Oc2c(N3C[C@H](N)C(C)(C)C3)c(F)cc3c(=O)c(C(=O)O)cn(c23)N1C (stereo partly shown) (hydrate or solvate) | melting point | 212 to 214 °C |
| CN1COc2c(N3CCC(O)(c4nccs4)C3)c(F)cc3c(=O)c(C(=O)O)cn1c23 (stereo not shown) (hydrate or solvate) | melting point | 252 to 253 °C |
| CN1COc2c(N3CC[C@H](NC(=O)C(F)(F)F)C3)ccc3c(=O)c(C(=O)O)cn1c23 (hydrate or solvate) | melting point | 310 °C (dec.) |
| CN1COc2c(N3CCC(C(N)c4nccs4)C3)c(F)cc3c(=O)c(C(=O)O)cn1c23 (stereo not shown) (hydrate or solvate) | melting point | 233 to 235 °C |
| CN1COc2c(N3CC[C@@H](n4ccnn4)C3)c(F)cc3c(=O)c(C(=O)O)cn1c23 (hydrate or solvate) | melting point | 235 °C (dec.) |
| Cc1nc(NC2CCN(c3c(F)cc4c(=O)c(C(=O)O)cn5c4c3OCN5C)C2)sc1C (stereo not shown) (hydrate or solvate) | melting point | 266 °C (dec.) |
| CN1COc2c(N3C[C@H](Nc4nccs4)C(C)(C)C3)c(F)cc3c(=O)c(C(=O)O)cn1c23 (hydrate or solvate) | melting point | 271 to 273 °C |
| CC1Oc2c(N3CC[C@@H](Nc4nccs4)C3)c(F)cc3c(=O)c(C(=O)O)cn(c23)N1C (stereo partly shown) (hydrate or solvate) | melting point | 224 to 226 °C |
| CN1COc2c(N3CCC(Nc4ccccn4)CC3)c(F)cc3c(=O)c(C(=O)O)cn1c23 (hydrate or solvate) | melting point | 264 °C (dec.) |
| CN1COc2c(N3CCC(CN(c4cnccn4)c4cnccn4)C3)c(F)cc3c(=O)c(C(=O)O)cn1c23 (stereo not shown) (hydrate or solvate) | melting point | 213 to 215 °C |
| CN1n2cc(C(=O)O)c(=O)c3ccc(N4CC[C@@H](Nc5nccs5)C4)c(c32)OC1(C)C (hydrate or solvate) | melting point | 287 °C (dec.) |
| CN(c1nccs1)[C@@H]1CCN(c2c(F)cc3c(=O)c(C(=O)O)cn4c3c2OCN4C)C1 (hydrate or solvate) | melting point | 222 to 224 °C |
| CN1COc2c(N3CC[C@@H](NC(=O)C(F)(F)F)C3)c(F)cc3c(=O)c(C(=O)O)cn1c23 (hydrate or solvate) | melting point | 273 to 275 °C |
| CC1Oc2c(N3CC[C@H](NC(=O)C(F)(F)F)C3)ccc3c(=O)c(C(=O)O)cn(c23)N1C (stereo partly shown) (hydrate or solvate) | melting point | 260 °C |
| CN1COc2c(N3CC[C@H](NC(=O)C(F)(F)F)C3)c(F)cc3c(=O)c(C(=O)O)cn1c23 (hydrate or solvate) | melting point | 273 to 275 °C |
| CN1COc2c(N3C[C@H](N)C(C)(C)C3)c(F)cc3c(=O)c(C(=O)O)cn1c23 (hydrate or solvate) | melting point | 222 °C (dec.) |
| CN1COc2c(N3CCC(n4ccnn4)C3)c(F)cc3c(=O)c(C(=O)O)cn1c23 (stereo not shown) (hydrate or solvate) | melting point | 264 °C (dec.) |
